Assign pIC50 to each entry below.
# ASSAY_TARGET: mTOR (Homo sapiens, UniProt P42345)
# ASSAY_INFO: mTOR enzyme assay (DELFIA format, His6-S6K substrate)
# Type: biochemical
# CONDITION_DETAILS: read-out: mTOR Kinase Median IC50
Numbers only, as −log10 of the molar value.

Previously resolved entries follow.
{"columns": ["SMILES_STR", "RECORDED_RESULT"],
 "data": [
  ["CN(C)CCNC(=O)c1ccc(-c2ccnc3c2c(/C=C2\\Oc4cccc(O)c4C2=O)cn3C)cc1", 8.07],
  ["Cn1cc(/C=C2\\Oc3cccc(O)c3C2=O)c2c(-c3ccc(N4CCCCC4)cc3)ccnc21", 8.10],
  ["CC(C)NC(=O)Nc1ccc2c(c1)C(=O)/C(=C/c1cn(C)c3nccc(N4CC5CCC(C4)O5)c13)O2", 7.14]
]}

We next turn to a different molecule, shown below.
Record summary for Cn1cc(/C=C2\Oc3ccc(NC(=O)Nc4cccnc4)cc3C2=O)c2c(N3CCC(C(=O)NCc4cccnc4)CC3)ccnc21 : reported pIC50 = 8.22

The reported numbers originate from patent US20090298820A1.
